- TESTED ON: T1, Human Siglec-9 (human, UniProt Q9Y336 18-463)
- T1 construct: On transfected CHO cells; also on YTS and KHYG-1 transfectants, primary NK cells and moDC; also called huSiglec-9; CD329
- T1 sequence (Q9Y336 18-463): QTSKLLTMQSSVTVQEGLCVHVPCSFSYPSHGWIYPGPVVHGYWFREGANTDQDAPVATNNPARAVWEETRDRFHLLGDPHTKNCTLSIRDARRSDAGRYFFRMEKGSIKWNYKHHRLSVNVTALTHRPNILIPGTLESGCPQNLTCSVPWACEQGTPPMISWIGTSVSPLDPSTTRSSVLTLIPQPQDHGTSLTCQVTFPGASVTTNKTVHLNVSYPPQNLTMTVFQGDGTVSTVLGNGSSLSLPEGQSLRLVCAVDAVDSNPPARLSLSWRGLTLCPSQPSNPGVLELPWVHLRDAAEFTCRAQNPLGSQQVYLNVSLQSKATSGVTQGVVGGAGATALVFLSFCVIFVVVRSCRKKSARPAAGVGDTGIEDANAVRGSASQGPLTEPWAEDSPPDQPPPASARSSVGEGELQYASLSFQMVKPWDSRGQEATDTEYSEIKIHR
- ASSAY NOTES: flow cytometry, CHO Siglec-9 cells, mean n = 2
PARAMETER: EC50 (mg/L)
State just the number; it will be interpreted in mg/L.

{"BINDER": "mAbD H0L1 (antibody, V domains shown, constant region not specified) VH: QVQLVQSGSELKKPGASVKVSCKASGYTFTDYSMHWVRQAPGQGLEWMGWIITETGEPTYADDFRGRFVFSLDTSVSTAYLQISSLKAEDTAVYYCARDFDGYWGQGTTVTVSS VL: DIQMTQSPSSLSASVGDRVTITCRASENIYSYLAWYQQKPGKAPKFLIYNAKTLTEGVPSRFSGSGSGTDFTLTISSLQPEDFATYYCQHHYGFPWTFGGGTKVEIK", "READOUT UNITS": "mg/L", "EC50": 0.01}

Prompt: Give its EC50 value. Item: mAbA H3L2 (antibody, V domains shown, constant region not specified) VH: QVQLVQSGAEVKKPGSSVKVSCKASYFTFSSYWMHWVRQAPGQGLEWMGEINPSNGHTNYNEKFESRVTITADRSTSTAYMELSSLRSEDTAVYYCANGVESYDFDDALDYWGQGTTVTVSS VL: DIQMTQSPSSLSASVGDRVTITCRASQDINNYLNWYQQKPGKAIKLLIYYTSRLHSGVPSRFSGSGSGTDYTFTISSLQPEDIATYYCQQGNTLPFTFGGGTKVEIK
Completion: 0.074

Prompt: Give its EC50 value. Item: mAbD H2L1 (antibody, V domains shown, constant region not specified) VH: QVQLVQSGSELKKPGASVKVSCKASGYTFTDYSMHWVRQAPGQGLKWMGWIITETGEPTYADDFRGRFVFSLDTSVSTAYLQISSLKAEDTAVYFCARDFDGYWGQGTTVTVSS VL: DIQMTQSPSSLSASVGDRVTITCRASENIYSYLAWYQQKPGKAPKFLIYNAKTLTEGVPSRFSGSGSGTDFTLTISSLQPEDFATYYCQHHYGFPWTFGGGTKVEIK
Completion: 0.016
